All values here come from paper PMC11435058.

Tested on: HCT-116
Method: NCI-60 anticancer screen (SRB; single dose and five doses)
Settings: Homo sapiens, HCT-116, 48 h, read-out: Growth Percentage
Parameter Measured: activity at 10 µM (%)

| Structure | Assayed System | Parameter Measured | Measurement |
| --- | --- | --- | --- |
| COc1ccc(/C=C/C(=O)c2sc(=S)[nH]c2C)cc1 | HCT-116 | activity at 10 µM | 76 |
| Cc1[nH]c(=S)sc1C(=O)/C=C/c1cccc(F)c1 | HCT-116 | activity at 10 µM | 21.2 |
| Cc1[nH]c(=S)sc1C(=O)/C=C/c1ccc(Br)cc1 | HCT-116 | activity at 10 µM | 16.6 |
| Cc1[nH]c(=S)sc1C(=O)/C=C/c1cccc(Cl)c1 | HCT-116 | activity at 10 µM | 3.28 |
| Cc1[nH]c(=S)sc1C(=O)/C=C/c1ccccc1Cl | HCT-116 | activity at 10 µM | 44.6 |
| Cc1[nH]c(=S)sc1C(=O)/C=C/c1ccc(F)cc1 | HCT-116 | activity at 10 µM | 23.7 |
